assayed-system: Translocator protein (Rattus norvegicus)
Sequence (P16257 whole entry, looked up): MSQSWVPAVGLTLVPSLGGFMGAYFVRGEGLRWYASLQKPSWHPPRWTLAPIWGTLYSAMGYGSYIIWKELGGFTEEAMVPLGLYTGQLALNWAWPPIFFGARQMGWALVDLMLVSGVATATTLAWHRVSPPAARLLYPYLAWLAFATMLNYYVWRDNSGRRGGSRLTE
test-name: Displacement of [3H]-PK 11195 from peripheral (mitochondrial) benzodiazepine receptor
pIC50: −log10 of the molar value.
Please mark Met if the recorded pIC50 is equal to or greater than 6, and Not met if it falls below.

>>> answer_label("O=C1c2cccn2-c2ccccc2[S+]([O-])C1c1ccccc1 (stereo unspecified)")
"Not met"
>>> answer_label("COc1ccc(C2C(=O)c3cccn3-c3ccccc3[S+]2[O-])cc1 (stereo unspecified)")
"Not met"
>>> answer_label("CN(C)C(=O)OC1=C(c2ccccc2)Sc2ccccc2-n2cccc21")
"Met"
>>> answer_label("CCCCC(=O)OC1=C(c2ccccc2)Sc2ccccc2-n2cccc21")
"Met"
>>> answer_label("CCCC(=O)OC1=C(c2ccc(OC)cc2)[S+]([O-])c2ccccc2-n2cccc21 (stereo unspecified)")
"Met"
>>> answer_label("CCCCCC(=O)OC1=C(c2ccccc2)Sc2ccccc2-n2cccc21")
"Met"
